# assay.remarks: Cytotoxicity against Homo sapiens (human) MT4 cells after 5 days by MTT assay
# Type: cell-based
Simple rule here: CC50 at 120 h less than 40 µg/mL is TRUE, otherwise FALSE.

Look over these answered cases.
compound	label
COc1cc(Cc2cnc(/N=C3\C(=O)N(CN4CCN(C)CC4)c4ccc(Cl)cc43)nc2N)cc(OC)c1OC	FALSE
COc1cc(Cc2cnc(/N=C3\C(=O)N(CN4CCN(c5ccc(F)cc5)CC4)c4ccc(Cl)cc43)nc2N)cc(OC)c1OC	FALSE
COc1cc(Cc2cnc(/N=C3\C(=O)N(CN4CCN(c5cc6c(cc5F)c(=O)c(C(=O)O)cn6C5CC5)CC4)c4ccc(Cl)cc43)nc2N)cc(OC)c1OC	FALSE
COc1cccc(N2CCN(CN3C(=O)/C(=N\c4ncc(Cc5cc(OC)c(OC)c(OC)c5)c(N)n4)c4cc(Cl)ccc43)CC2)c1	TRUE
COc1cc(Cc2cnc(/N=C3\C(=O)N(CN4CCN(C(=O)c5ccc(F)cc5)CC4)c4ccc(Cl)cc43)nc2N)cc(OC)c1OC	FALSE
CCCCN(CCCC)CN1C(=O)/C(=N\c2ncc(Cc3cc(OC)c(OC)c(OC)c3)c(N)n2)c2cc(Cl)ccc21	FALSE
COc1cc(Cc2cnc(/N=C3\C(=O)N(CN(Cc4ccccc4)Cc4ccccc4)c4ccc(Cl)cc43)nc2N)cc(OC)c1OC	FALSE
COc1cc(Cc2cnc(/N=C3\C(=O)N(CN4CCC(C)CC4)c4ccc(Cl)cc43)nc2N)cc(OC)c1OC	FALSE

Q: Identify whether the compound "CCN(CC)CN1C(=O)/C(=N\c2ncc(Cc3cc(OC)c(OC)c(OC)c3)c(N)n2)c2cc(Cl)ccc21" records CC50 at 120 h below 40 µg/mL.
A: FALSE

Q: Dear colleague, could you confirm whether CC50 at 120 h of CCn1cc(C(=O)O)c(=O)c2cc(F)c(N3CCN(CN4C(=O)/C(=N\c5ncc(Cc6cc(OC)c(OC)c(OC)c6)c(N)n5)c5cc(Cl)ccc54)C(C)C3)c(F)c21 (stereo not given) falls below 40 µg/mL? Thanks.
A: TRUE

Q: Item COc1cc(Cc2cnc(/N=C3\C(=O)N(CN4CCCCC4C)c4ccc(Cl)cc43)nc2N)cc(OC)c1OC (stereo not given) : CC50 at 120 h beneath 40 µg/mL, strictly?
A: FALSE

Q: Confirm or reject: CC50 at 120 h of "COc1cc(Cc2cnc(/N=C3\C(=O)N(CN4CCN(Cc5ccccc5)CC4)c4ccc(Cl)cc43)nc2N)cc(OC)c1OC" lies strictly below 40 µg/mL
A: TRUE

Q: Here's an entry: "COc1cc(Cc2cnc(/N=C3\C(=O)N(CN4CCN(c5ccc(Cl)cc5)CC4)c4ccc(Cl)cc43)nc2N)cc(OC)c1OC" . Is its CC50 at 120 h below 40 µg/mL?
A: TRUE
